FYI, the data here is from the supplement of paper PMC10883282.

- System: RD-ES
- protocol details: relative viability vs DMSO control (72 h) (fraction); higher = more viable cells
- run parameters: 10 µM
# relative viability per record follows
The answer should be written as a number, with no unit following it.

Example cases with answers are listed next.
compound | relative viability
COc1cc2c(Oc3ccc4[nH]c(C)cc4c3F)ncnc2cc1OCCCN1CCCC1 [Cediranib] | 0.943
CC1(C)CNc2cc(NC(=O)c3cccnc3NCc3ccncc3)ccc21 [Motesanib] | 0.846
N#CC[C@H](C1CCCC1)n1cc(-c2ncnc3[nH]ccc23)cn1 [Ruxolitinib] | 0.954

Query (compound): C=CC(=O)N1CCC[C@@H](n2nc(-c3ccc(Oc4ccccc4)cc3)c3c(N)ncnc32)C1 [Ibrutinib] ; field requested: relative viability
0.882

Requested field: relative viability. Item: CC(C)NC(=O)C1CCC(n2c(NC(=O)c3ccc(F)cc3)nc3ccc(CN4CCC(C(C)(C)O)CC4)cc32)CC1 (configuration not stated) [Belizatinib]
0.261

Quick one: relative viability of CCc1cc2c(cc1N1CCC(N3CCOCC3)CC1)C(C)(C)c1[nH]c3cc(C#N)ccc3c1C2=O [Alectinib] ?
1.03

I am curious: what relative viability value has been reported for CC(C)(C)c1cc(NC(=O)Nc2ccc(-c3cn4c(n3)sc3cc(OCCN5CCOCC5)ccc34)cc2)no1 [Quizartinib] ?
0.869

Any idea what relative viability was measured for C[C@@H]1CCN(C(=O)CC#N)C[C@@H]1N(C)c1ncnc2[nH]ccc12 [Tofacitinib] ?
1.02

Name the reported relative viability value associated with the compound CNC(=O)c1cc(Oc2ccc(NC(=O)Nc3ccc(Cl)c(C(F)(F)F)c3)c(F)c2)ccn1 [Regorafenib]
0.776

Need relative viability of CC(=O)Nc1cccc(-n2c(=O)n(C3CC3)c(=O)c3c(Nc4ccc(I)cc4F)n(C)c(=O)c(C)c32)c1 [Trametinib] , thanks.
0.941

Entry COCc1c(-c2cc3cc(C)cc(OC)c3s2)c2c(N)ncnn2c1CN1CCNC(=O)C1 [Rogaratinib] : reported relative viability = ?
0.455

Need relative viability, item CCCS(=O)(=O)Nc1ccc(F)c(C(=O)c2c[nH]c3ncc(-c4ccc(Cl)cc4)cc23)c1F [Vemurafenib]
0.7
